Listing of recorded Inhibition by entry.
System: Plasmodium falciparum
Experiment: GSK_TCMDC: Inhibition of Plasmodium falciparum 3D7 in whole red blood cells, using parasite LDH activity as an index of growth. Test compounds present at 2uM
Format: functional
PROPERTY_NAME: Inhibition (%)

- MOLECULE: "CC(C)N1CCC(NC(=O)N2CCCN(c3ncnc4cc(-c5ccc(Cl)cc5)sc34)CC2)CC1.O=C(O)C(F)(F)F"
  ASSAYED_TARGET: "Plasmodium falciparum"
  VALUE_REPORTED: 81
- MOLECULE: "CCCNCc1ccc(-c2ccc(CN(CCOC)C(=O)COc3ccccc3Cl)cc2)nc1.O=C(O)C(F)(F)F"
  ASSAYED_TARGET: "Plasmodium falciparum"
  VALUE_REPORTED: 96
- MOLECULE: "Oc1ccc(Br)cc1-c1nc2ccc(Cl)cc2nc1-c1cc(Br)ccc1O"
  ASSAYED_TARGET: "Plasmodium falciparum"
  VALUE_REPORTED: 100
- MOLECULE: "Cc1cc(NC(=O)Nc2ccc(C#N)cc2)c2ccccc2n1"
  ASSAYED_TARGET: "Plasmodium falciparum"
  VALUE_REPORTED: 100
- MOLECULE: "CN(C)c1cc(C(=O)N[C@@H](Cc2ccccc2)[C@H](O)CNC2CCCCC2)cc2[nH]ccc12.O=CO"
  ASSAYED_TARGET: "Plasmodium falciparum"
  VALUE_REPORTED: 98
- MOLECULE: "CC=Cc1cc(Cc2c[nH]c(=N)[nH]c2=N)cc(CCC)c1OC"
  ASSAYED_TARGET: "Plasmodium falciparum"
  VALUE_REPORTED: 97
- MOLECULE: "Cc1ccccc1Cn1c(CN2CCC(C(=O)NC3CC3)CC2)cc2ccccc21"
  ASSAYED_TARGET: "Plasmodium falciparum"
  VALUE_REPORTED: 97
- MOLECULE: "O=[N+]([O-])c1cccc(NC(=S)N2CCCN(Cc3ccc(C(F)(F)F)cc3)CC2)c1"
  ASSAYED_TARGET: "Plasmodium falciparum"
  VALUE_REPORTED: 90
- MOLECULE: "Nc1nc(N)c2cc(C#Cc3ccc(-c4ccccc4)cc3)ccc2n1"
  ASSAYED_TARGET: "Plasmodium falciparum"
  VALUE_REPORTED: 94
- MOLECULE: "O=c1sn(-c2csc3ccccc23)c2ccccc12"
  ASSAYED_TARGET: "Plasmodium falciparum"
  VALUE_REPORTED: 94
- MOLECULE: "COc1ccc2nccc([C@@H](O)CN3CCC(NC(=O)c4cc5c(Cl)cc(Cl)cc5[nH]4)CC3)c2c1"
  ASSAYED_TARGET: "Plasmodium falciparum"
  VALUE_REPORTED: 100
- MOLECULE: "COc1ccc2ncc(F)c(CCN3CCC(NCc4cnc5c(c4)NC(=O)CS5)CC3)c2c1.Cl"
  ASSAYED_TARGET: "Plasmodium falciparum"
  VALUE_REPORTED: 99
- MOLECULE: "CCC[C@@H]([C@@H](CC1CCC(C)CC1)C(=O)N[C@@H](CCCCNC(=O)c1ccccn1)C(=O)Nc1nccs1)N(O)C=O (some centres not stated)"
  ASSAYED_TARGET: "Plasmodium falciparum"
  VALUE_REPORTED: 100
- MOLECULE: "Cc1nc(C)c(CC(=O)Nc2cccc(-c3cccc(-c4nc5cccc(C)c5[nH]4)c3)c2)s1"
  ASSAYED_TARGET: "Plasmodium falciparum"
  VALUE_REPORTED: 92
- MOLECULE: "O=C(/C=C/c1ccc(Cl)c(Cl)c1)NC1CCC(CN2CCC(c3nc4ccccc4n3CCCO)CC2)CC1 (configuration not stated)"
  ASSAYED_TARGET: "Plasmodium falciparum"
  VALUE_REPORTED: 99
- MOLECULE: "CN(C)CCOc1cc(NC(=O)Nc2ccc(Cl)cc2C(F)(F)F)ccc1I"
  ASSAYED_TARGET: "Plasmodium falciparum"
  VALUE_REPORTED: 96
- MOLECULE: "CCS(=O)(=O)N1CCN(c2nc(-c3ccccc3)nc(COC)c2Cc2ccccc2F)CC1"
  ASSAYED_TARGET: "Plasmodium falciparum"
  VALUE_REPORTED: 82
- MOLECULE: "CN(c1ccccc1)S(=O)(=O)c1cccc(NC(=O)c2ccc(-n3ccnc3)c([N+](=O)[O-])c2)c1"
  ASSAYED_TARGET: "Plasmodium falciparum"
  VALUE_REPORTED: 83
- MOLECULE: "Cc1cccc2nc(-c3ccc(-c4ccc(CNCC5CCCO5)cc4)s3)[nH]c12.O=C(O)C(F)(F)F (configuration not stated)"
  ASSAYED_TARGET: "Plasmodium falciparum"
  VALUE_REPORTED: 100
- MOLECULE: "COc1ccc(-c2ccc(CNC3Cc4ccccc4C3)cc2)cc1S(=O)(=O)NCCN1CCCC1.O=C(O)C(F)(F)F"
  ASSAYED_TARGET: "Plasmodium falciparum"
  VALUE_REPORTED: 100
- MOLECULE: "Cc1nc(N)nc(N)c1-c1ccc(Br)c([N+](=O)[O-])c1"
  ASSAYED_TARGET: "Plasmodium falciparum"
  VALUE_REPORTED: 95
- MOLECULE: "CC(C)CCN1CCCN(Cc2cccc(NC(=O)c3ccc(-c4ccccc4)cc3)c2)CC1.O=C(O)C(F)(F)F"
  ASSAYED_TARGET: "Plasmodium falciparum"
  VALUE_REPORTED: 92
- MOLECULE: "Cc1ccc(C)c(Cn2c(N3CCC(C(=O)NCc4cccs4)CC3)nc3ccccc32)c1"
  ASSAYED_TARGET: "Plasmodium falciparum"
  VALUE_REPORTED: 89
- MOLECULE: "O=C(Cc1cccs1)NCC(c1ccccc1Cl)c1c[nH]c2ccccc12 (configuration not stated)"
  ASSAYED_TARGET: "Plasmodium falciparum"
  VALUE_REPORTED: 91
- MOLECULE: "Cc1cccc2c3c([nH]c12)C1(CCN(CCc2ccccc2)CC1)NC(C(=O)NCc1ccccc1)C3 (configuration not stated)"
  ASSAYED_TARGET: "Plasmodium falciparum"
  VALUE_REPORTED: 86
- MOLECULE: "COc1ccc(C(=C(C)CC(C)C(=O)O)c2ccccc2)cc1 (configuration not stated)"
  ASSAYED_TARGET: "Plasmodium falciparum"
  VALUE_REPORTED: 95
- MOLECULE: "OC(CNCc1ccccc1OCc1ccccc1)c1cccc(I)c1 (configuration not stated)"
  ASSAYED_TARGET: "Plasmodium falciparum"
  VALUE_REPORTED: 100
- MOLECULE: "CC(C)NCC(O)COc1ccc(Cc2ccc(OCC(O)CNC(C)C)cc2)cc1.Cl (configuration not stated)"
  ASSAYED_TARGET: "Plasmodium falciparum"
  VALUE_REPORTED: 100
- MOLECULE: "FC(F)(F)c1ccc2[nH]ccc(=NN=Cc3ccccc3Cl)c2c1"
  ASSAYED_TARGET: "Plasmodium falciparum"
  VALUE_REPORTED: 100
- MOLECULE: "COc1cc(NC(=O)/C=C/c2cc(F)cc(F)c2F)cc(OCCN2CCC3(CC2)OCCO3)c1.O=C(O)C(=O)O"
  ASSAYED_TARGET: "Plasmodium falciparum"
  VALUE_REPORTED: 98
- MOLECULE: "Cc1cccc2nc(-c3ccc(-c4ccc(CN5CCN(CCN6CCOCC6)CC5)cc4)s3)[nH]c12.O=C(O)C(F)(F)F"
  ASSAYED_TARGET: "Plasmodium falciparum"
  VALUE_REPORTED: 100
- MOLECULE: "O=C(NCCc1ccc(F)cc1)c1ccc(N2CCN(c3ccncc3)CC2)nc1.O=C(O)C(F)(F)F"
  ASSAYED_TARGET: "Plasmodium falciparum"
  VALUE_REPORTED: 88
- MOLECULE: "CCNC(=O)NC1CCN(Cc2c(-c3cccs3)nc3ccccc3c2C(=O)N[C@@H](C)C2CCCCC2)CC1"
  ASSAYED_TARGET: "Plasmodium falciparum"
  VALUE_REPORTED: 95
- MOLECULE: "O=C(Nc1ccc(CCNC2=NCCN2)cc1)Nc1ccc(CCNC2=NCCN2)cc1"
  ASSAYED_TARGET: "Plasmodium falciparum"
  VALUE_REPORTED: 90
- MOLECULE: "CS(=O)(=O)c1ccc(CNCc2cccc(-c3cccc(-c4nc5ccccc5[nH]4)c3)c2)cc1.O=C(O)C(F)(F)F"
  ASSAYED_TARGET: "Plasmodium falciparum"
  VALUE_REPORTED: 100
- MOLECULE: "CN1CCCN(Cc2cccc(-c3ccc(NC(=O)c4cccc(Cl)c4)cc3)c2)CC1.O=C(O)C(F)(F)F"
  ASSAYED_TARGET: "Plasmodium falciparum"
  VALUE_REPORTED: 90
- MOLECULE: "CCCCC1=CC2C(=O)C(C(=O)OC)=CN=C2C=C1OCc1ccccc1 (configuration not stated)"
  ASSAYED_TARGET: "Plasmodium falciparum"
  VALUE_REPORTED: 99
